Test system: Lipid bilayer
Test: Binding affinity to DPPC membrane assessed as main transition temperature at 1:10 compound/DPPC molar ratio by differential scanning calorimetric method (reference value: 41.5 degreeC)
measurement.name: Tm
Form field: result (number plus unit)

Specify measured Tm for COc1cc(NC(C)CCCNC(=O)/C=C/c2ccc(C(C)C)cc2)c2ncccc2c1 (centres undefined) .
40.1 °C

Tell me measured Tm for COc1cc(NC(C)CCCNC(=O)/C=C/c2ccc(Cl)cc2)c2ncccc2c1 (centres undefined) please.
40.1 °C

Input CC(C)c1ccc(/C=C/C(=O)O)cc1.COc1cc(NC(C)CCCN)c2ncccc2c1 (centres undefined) , output reported Tm.
40.2 °C

Look up and state reported Tm for COc1cc(NC(C)CCCN)c2ncccc2c1.O=C(O)/C=C/c1ccc(Cl)cc1 (centres undefined)
40.7 °C
